meta.source: ChEMBL document CHEMBL2021778

Tested on: Xenopus laevis
experimentSummary: Anesthetic effect on Xenopus laevis tadpole assessed as loss of swimming reflex
Assay type: functional, organism-based
observedProperty: pEC50
Expect pEC50 as a plain number equal to -log10 of the molar concentration.

Reference set (6 entries):
{"columns": ["smilesEntry", "pEC50"],
 "data": [
  ["C[C@@]12CC[C@H](O)C[C@H]1CC[C@@H]1[C@@H]2[C@H](OCc2ccccc2)C[C@@]2(C)C(=O)CC[C@@H]12", 5.46],
  ["C[C@@]12CC[C@H](O)C[C@H]1C[C@@H](OCc1ccccc1)[C@@H]1[C@@H]2CC[C@@]2(C)C(=O)CC[C@@H]12", 5.53],
  ["C[C@@]12CC[C@H](O)C[C@H]1C[C@@H](OCc1ccccc1)[C@@H]1[C@@H]2CC[C@]2(C)[C@H]1CC[C@]21CO1", 6.26],
  ["C[C@@]12CC[C@H](O)C[C@H]1CC[C@@H]1[C@@H]2[C@H](OCc2ccccc2)C[C@]2(C)[C@H]1CC[C@]21CO1", 5.56],
  ["C[C@]12CC[C@@H](O)C[C@@H]1CC[C@@H]1[C@@H]2[C@@H](OCc2ccccc2)C[C@]2(C)C(=O)CC[C@@H]12", 6.06],
  ["C[C@]12CC[C@@H](O)C[C@@H]1CC[C@@H]1[C@@H]2[C@@H](OCc2ccccc2)C[C@@]2(C)[C@H]1CC[C@@]21CO1", 6.57]
]}

# next compound below
The compound listed as C[C@]12CC[C@@H](O)C[C@@H]1C[C@H](OCc1ccccc1)[C@@H]1[C@@H]2CC[C@@]2(C)[C@H]1CC[C@@]21CO1 shows pEC50 equal to 5.10

----------
System: Oocyte
experimentSummary: Modulation of rat alpha1beta2gamma2L GABAA receptor expressed in Xenopus laevis oocytes assessed as potentiation of GABA-induced chloride currents at 1 uM by electrophysiology assay relative to control
Type: cell-based
Class assignment keyed on Ratio, ranges lower range: < 1; middle range: ≥ 1 and < 6; upper range: ≥ 6

For orientation, consider the following solved cases.
{"columns": ["compound", "discreteLabel"],
 "data": [
  ["C[C@@]12CC[C@H](O)C[C@H]1C[C@@H](OCc1ccccc1)[C@@H]1[C@@H]2CC[C@]2(C)[C@H]1CC[C@]21CO1", "upper range"],
  ["C[C@@]12CC[C@H](O)C[C@H]1CCC1C2CC[C@]2(C)C1CC[C@]21CO1 (single isomer, unassigned)", "upper range"]
]}

# bin lookup: classify C[C@]12CC[C@@H](O)C[C@@H]1CC[C@@H]1[C@@H]2[C@@H](OCc2ccccc2)C[C@@]2(C)[C@H]1CC[C@@]21CO1 by its Ratio upper range

# bin lookup: classify C[C@@]12CC[C@H](O)C[C@H]1CC[C@@H]1[C@@H]2[C@H](OCc2ccccc2)C[C@@]2(C)C(=O)CC[C@@H]12 by its Ratio lower range

# bin lookup: classify C[C@@]12CC[C@H](O)C[C@H]1C[C@@H](OCc1ccccc1)[C@@H]1[C@@H]2CC[C@@]2(C)C(=O)CC[C@@H]12 by its Ratio middle range

# bin lookup: classify CC(=O)[C@H]1CC[C@H]2[C@@H]3CC[C@H]4C[C@H](O)CC[C@]4(C)[C@H]3CC[C@]12C by its Ratio middle range

----------
experimentSummary: Displacement of [35S]TBPS from GABAA receptor picrotoxin binding site in rat brain membranes
Assay type: cell membranes
observedProperty: pIC50
Expect pIC50 as a plain number equal to -log10 of the molar concentration.

Reference set (2 entries):
{"columns": ["molecule", "pIC50"],
 "data": [
  ["C[C@@]12CC[C@H](O)C[C@H]1CC[C@@H]1[C@@H]2[C@H](OCc2ccccc2)C[C@]2(C)[C@H]1CC[C@]21CO1", 5.69],
  ["C[C@]12CC[C@@H](O)C[C@@H]1CC[C@@H]1[C@@H]2CC[C@]2(C)C(=O)CC[C@@H]12 [ANDROSTERONE]", 6.39]
]}

# next molecule below
The molecule listed as C[C@@]12CCC3C(CC[C@@H]4C[C@@H](O)CC[C@@]34C)C1CCC2=O (single isomer, unassigned) shows pIC50 equal to 6.51

----------
Listed below: Ratio values for each entry.
System: Oocyte
experimentSummary: Modulation of rat alpha1beta2gamma2L GABAA receptor expressed in Xenopus laevis oocytes assessed as potentiation of GABA-induced chloride currents at 0.1 uM by electrophysiology assay relative to control
Assay type: cell-based

Reference set (2 entries):
{"columns": ["molecule", "Ratio"],
 "data": [
  ["C[C@]12CC[C@@H](O)C[C@@H]1CC[C@@H]1[C@@H]2CC[C@]2(C)C(=O)CC[C@@H]12 [ANDROSTERONE]", 0.97],
  ["C[C@@]12CCC3C(CC[C@@H]4C[C@@H](O)CC[C@@]34C)C1CCC2=O (single isomer, unassigned)", 1.27]
]}

The molecule listed as C[C@]12CC[C@@H](O)C[C@@H]1CC[C@@H]1[C@@H]2CC[C@@]2(C)[C@H]1CC[C@@]21CO1 shows Ratio equal to 3.11

The molecule listed as C[C@]12CC[C@@H](O)C[C@@H]1CC[C@@H]1[C@@H]2[C@@H](OCc2ccccc2)C[C@@]2(C)[C@H]1CC[C@@]21CO1 shows Ratio equal to 2.99

The molecule listed as C[C@@]12CC[C@H](O)C[C@H]1CC[C@@H]1[C@@H]2[C@H](OCc2ccccc2)C[C@]2(C)[C@H]1CC[C@]21CO1 shows Ratio equal to 1.01

The molecule listed as C[C@]12CC[C@@H](O)C[C@@H]1C[C@H](OCc1ccccc1)[C@@H]1[C@@H]2CC[C@]2(C)C(=O)CC[C@@H]12 shows Ratio equal to 0.97

----------
Tested on: Oocyte
experimentSummary: Modulation of rat alpha1beta2gamma2L GABAA receptor expressed in Xenopus laevis oocytes assessed as potentiation of GABA-induced chloride currents at 1 uM by electrophysiology assay relative to control
Assay type: cell-based
Listed below: Ratio values for each entry.
Lab note: jot the number down without any unit.

{"columns": ["compound", "Ratio"],
 "data": [
  ["C[C@@]12CCC3C(CC[C@@H]4C[C@@H](O)CC[C@@]34C)C1CCC2=O (single isomer, unassigned)", 3.66],
  ["C[C@@]12CC[C@H](O)C[C@H]1CC[C@@H]1[C@@H]2[C@H](OCc2ccccc2)C[C@]2(C)[C@H]1CC[C@]21CO1", 1.3],
  ["C[C@]12CC[C@@H](O)C[C@@H]1C[C@H](OCc1ccccc1)[C@@H]1[C@@H]2CC[C@]2(C)C(=O)CC[C@@H]12", 0.9]
]}

# next compound below
Here C[C@]12CC[C@@H](O)C[C@@H]1C[C@H](OCc1ccccc1)[C@@H]1[C@@H]2CC[C@@]2(C)[C@H]1CC[C@@]21CO1 was tested on Oocyte, and its Ratio came to 0.88
